// data source = ChEMBL document CHEMBL1137569

target: Cannabinoid receptor 2 (Homo sapiens, UniProt P34972); assay: Inhibition of human CB2 receptor expressed in CHO cells; format: cell-based
Sequence (P34972 whole entry): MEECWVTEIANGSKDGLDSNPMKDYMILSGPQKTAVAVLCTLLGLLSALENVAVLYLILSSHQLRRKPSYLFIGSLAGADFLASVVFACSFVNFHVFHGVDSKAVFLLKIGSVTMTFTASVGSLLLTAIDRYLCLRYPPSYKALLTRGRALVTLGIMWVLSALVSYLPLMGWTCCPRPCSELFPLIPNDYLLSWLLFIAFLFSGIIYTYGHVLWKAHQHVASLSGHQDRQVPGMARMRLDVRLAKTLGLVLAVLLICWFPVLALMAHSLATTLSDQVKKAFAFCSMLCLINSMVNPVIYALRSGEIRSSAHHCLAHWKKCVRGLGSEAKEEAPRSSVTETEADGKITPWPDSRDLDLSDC
In plain terms, low Ki, meaning strictly below 200 nM, gives YES, and everything else gives NO.

Use the examples below as a reference point.
compound=O=C(c1cn(Cc2ccc(F)cc2)c2ccccc2c1=O)c1cccc2ccccc12 cat=NO
compound=CCCCCn1cc(CNCCc2ccccc2)c(=O)c2ccccc21 cat=NO
compound=CCCCCn1cc(C(=O)NC23CC4CC(C)(CC(C)(C4)C2)C3)c(=O)c2ccc(Cl)cc21 cat=YES
compound=CCCCCn1cc(C(=O)NC23CC4CC(C)(CC(C)(C4)C2)C3)c(=O)c2cccc(Cl)c21 cat=YES
compound="CCCCCn1cc(C(=O)NC(C)C23CC4CC(CC(C4)C2)C3)c(=O)c2cc(Cl)ccc21 (single isomer, unassigned; (-))" cat=NO

Then there is this compound:
Determine whether this compound shows Ki lower than 200 nM (ties excluded): `CCCCCn1cc(C(=O)c2cccc3ccccc23)c(=O)c2ccccc21`
YES

###

molecular target: Cannabinoid receptor 2 (Homo sapiens); experiment: Displacement of [3H]CP-55940 from human CB2 receptor expressed in CHO cells; format: cell-based; set-up: concentration or dose not given beside the values
Measured Activity, listed per entry.
Give the quantity in %, number only.

compound=O=C(c1cn(CCc2ccccc2)c2ccccc2c1=O)c1cccc2ccccc12 system_tested="Cannabinoid receptor 2 (Homo sapiens)" test_result=56.8
compound="CCCCCn1cc(C(=O)NC(C)C23CC4CC(CC(C4)C2)C3)c(=O)c2cc(Cl)ccc21 (racemic)" system_tested="Cannabinoid receptor 2 (Homo sapiens)" test_result=81.8
compound=O=C(c1cn(CCN2CCOCC2)c2ccccc2c1=O)c1cccc2ccccc12 system_tested="Cannabinoid receptor 2 (Homo sapiens)" test_result=46.1
compound=O=C(c1cn(Cc2ccccc2)c2ccccc2c1=O)c1cccc2ccccc12 system_tested="Cannabinoid receptor 2 (Homo sapiens)" test_result=100
compound=CCCCCn1nc(C(=O)NC23CC4CC(C)(CC(C)(C4)C2)C3)c(=O)c2ccccc21 system_tested="Cannabinoid receptor 2 (Homo sapiens)" test_result=94.6
compound=O=C(c1cn(Cc2ccc(Br)cc2)c2ccccc2c1=O)c1cccc2ccccc12 system_tested="Cannabinoid receptor 2 (Homo sapiens)" test_result=93.7
compound=CCCCn1cc(C(=O)c2cccc3ccccc23)c(=O)c2ccccc21 system_tested="Cannabinoid receptor 2 (Homo sapiens)" test_result=77.7
compound=CCCCCn1cc(C(=O)NC23CC4CC(C)(CC(C)(C4)C2)C3)c(=O)c2cccnc21 system_tested="Cannabinoid receptor 2 (Homo sapiens)" test_result=102

GET /values?readout=Activity&item= `CC12CC3CC(C)(C1)CC(NC(=O)c1cn(Cc4ccc(Br)cc4)c4ccccc4c1=O)(C3)C2`
30.5

Also, CCCCCn1cc(C(=O)NC2CCCc3ccccc32)c(=O)c2cc(Cl)ccc21 (racemic) please.
98.2

Similarly, CCCCCn1cc(C(=O)NC(C)C23CC4CC(CC(C4)C2)C3)c(=O)c2cc(Cl)ccc21 (single isomer, unassigned; (-)) ?
87.7

###

For Cannabinoid receptor 2 (Homo sapiens), measured Ki is reported for the entries below.

Answered cases to consult:
compound="CCCCCn1cc(CNCC2CCCc3ccccc32)c(=O)c2ccccc21 (racemic)" test_result="> 4000 nM"
compound="CC(NC(=O)c1cn(CCN2CCOCC2)c2ccccc2c1=O)c1ccccc1 (single isomer, unassigned; (-))" test_result="< 2000 nM"

Then there is this compound:
If you can, please state the reported Ki value of `CCCCCn1cc(C(=O)c2ccc3c(c2)COC3)c(=O)c2ccccc21` .
> 2000 nM

###

Assay system Cannabinoid receptor 2 (Homo sapiens); read-out recorded as Ki.
Give just the number in nM; leave the unit off.

compound="CCCCCn1cc(C(=O)NC(C)C23CC4CC(CC(C4)C2)C3)c(=O)c2ccc(Cl)cc21 (racemic)" assay_readout=Ki test_result=41.1

Param item = CCCCCn1cc(C(=O)NC2CCCc3ccccc32)c(=O)c2ccccc21 (single isomer, unassigned; (-)) ; retrieve measured Ki.
1010

###

biological target: UniProtKB P34972; assay: Displacement of [3H]CP-55940 from human CB2 receptor expressed in CHO cells; format: cell-based; parameters: concentration or dose not given beside the values
assay readout: Activity (%)
Response body: numeric value in %, unit text excluded.

Some molecules with known Activity results, for comparison:
molecule="CCCCCn1cc(C(=O)NC(C)C23CC4CC(CC(C4)C2)C3)c(=O)c2ccccc21 (single isomer, unassigned; (+))" test_result=64.3
molecule=CCCCCn1c(-c2ccccc2)c(C(=O)NC23CC4CC(C)(CC(C)(C4)C2)C3)c(=O)c2ccccc21 test_result=97.2
molecule=CC12CC3CC(C)(C1)CC(NC(=O)c1cn(CCN4CCOCC4)c4ccccc4c1=O)(C3)C2 test_result=95.6
molecule=CCCCCn1cc(C(=O)NC23CC4CC(C)(CC(C)(C4)C2)C3)c(=O)c2cccc(Cl)c21 test_result=98.7
molecule=O=C(c1cn(CCCc2ccccc2)c2ccccc2c1=O)c1cccc2ccccc12 test_result=80.4

What value of measured Activity is listed for CCCCCn1cc(C(=O)NC2CCCc3ccccc32)c(=O)c2ccccc21 (single isomer, unassigned; (-)) ?
90.9

Also `O=C(c1cn(Cc2ccc(F)cc2)c2ccccc2c1=O)c1cccc2ccccc12` ?
112

Another molecule to check: `O=C(c1cn(CCC2CCCCC2)c2ccccc2c1=O)c1cccc2ccccc12`
78.5

Also `CCCCCn1cc(C(=O)c2ccccc2)c(=O)c2ccccc21` , if possible.
94.5

Further, for CCCCCn1cc(C(=O)NC(C)C23CC4CC(CC(C4)C2)C3)c(=O)c2ccccc21 (stereo in doubt; 24) ?
101

And then `CCCCCn1cc(C(=O)c2c3ccccc3cc3ccccc23)c(=O)c2ccccc21` , what is it?
76.5

Another: `O=C(NCCc1ccccc1)c1cn(CCN2CCOCC2)c2ccccc2c1=O`
46.7

One more molecule: CCCCCn1c(C)c(C(=O)NC(C)c2cccc3ccccc23)c(=O)c2ccccc21 (single isomer, unassigned; (-))
70.4

Would you kindly repeat that for `CCCCCn1cc(CNCCc2ccccc2)c(=O)c2ccccc21` ?
25.9
